Listing of recorded MTD at 336 h by entry.
# protocol-description: Acute toxicity in iv dosed SPF ICR mouse assessed as maximum tolerated measured for 14 days
# Type: organism-based
# experimental-context: in vivo, dose 30 mg/kg, time 14 day
Enter your answer as a number in mg/kg; do not include the unit.

CNCC(=O)N[C@@H]1[C@H](O)[C@H](O[C@H]2/C=C/C=C/C=C/C=C/C=C/C=C/C=C/[C@H](C)[C@@H](O)[C@@H](C)[C@H](C)OC(=O)C[C@H](O)C[C@H](O)CC[C@@H](O)[C@H](O)C[C@H](O)C[C@]3(O)C[C@H](O)[C@@H](C(=O)NCCN)[C@H](C2)O3)O[C@H](C)[C@H]1O    7.5
C[C@@H]1[C@H](O)[C@@H](C)/C=C/C=C/C=C/C=C/C=C/C=C/C=C/[C@H](O[C@@H]2O[C@H](C)[C@@H](O)[C@H](N)[C@@H]2O)C[C@@H]2O[C@](O)(C[C@@H](O)C[C@@H](O)[C@H](O)CC[C@@H](O)C[C@@H](O)CC(=O)O[C@H]1C)C[C@H](O)[C@H]2C(=O)O    2.01

Then there is this compound:
Q: For C[C@@H]1[C@H](O)[C@@H](C)/C=C/C=C/C=C/C=C/C=C/C=C/C=C/[C@H](O[C@@H]2O[C@H](C)[C@@H](O)[C@H](N)[C@@H]2O)C[C@@H]2O[C@](O)(C[C@@H](O)C[C@@H](O)[C@H](O)CC[C@@H](O)C[C@@H](O)CC(=O)O[C@H]1C)C[C@H](O)[C@H]2C(=O)NCCN , what is its reported MTD at 336 h?
Result: 7.5
